# Test system: K-562 leukemia
# assay.procedure: NCI-60 one-dose screen, 48 h (100 = growth as untreated, 0 = no growth, -100 = all killed)
# condition.set: 10 µM unless noted
About 83,000 compounds went through this panel and 20% of them were active in at least one assay; those are over-represented in the sample as a whole.
endpoint.label: growth (%)

{"compound": "CC12CCC3C(C=CC4=C(N)C(=O)CCC43C)C1CCC2=O (configuration not stated)", "target.entity": "K-562 leukemia", "result.value": -26.9}
{"compound": "CCCCCCC(=O)NC1=C(N2CC2)C(=O)C(NC(=O)CCCCCC)=C(N2CC2)C1=O", "target.entity": "K-562 leukemia", "result.value": 70.7}
{"compound": "CC(C)=CC1C(C(=O)OCc2cccc(Oc3ccccc3)c2)C1(C)C (configuration not stated)", "target.entity": "K-562 leukemia", "result.value": 92.6}
{"compound": "C=CC1=C[C@@H]2[C@@H]3O[C@]4(CC[C@H](O4)[C@@H](C)C[C@@H](O)C3=O)C[C@H](O)C3=NCC[C@@]32CC1", "target.entity": "K-562 leukemia", "result.value": 5.48}
{"compound": "CCCCN(CCCC)P(=O)(Oc1ccccc1)Oc1ccccc1", "target.entity": "K-562 leukemia", "result.value": 46.2}
{"compound": "COC(=O)[C@@H](C)C[C@H](Cc1ccccc1)NC(=O)c1csc([C@@H](C[C@H](C(C)C)N(C)C(=O)[C@H](C)NC(=O)[C@H]2CCCCN2C)OC(C)=O)n1", "target.entity": "K-562 leukemia", "result.value": 10}
{"compound": "CC1=C(CCCOC(=O)CN)C2=C(C)C3(CC3)[C@@](C)(O)C(=O)C2=C1", "target.entity": "K-562 leukemia", "result.value": 90.2}
{"compound": "C[C@@H]1O[C@@H](O[C@H]2C[C@@H](O)[C@]3(CO)C4C(CC[C@]3(O)C2)[C@@]2(O)CC[C@H](C3=CC(=O)OC3)[C@@]2(C)C[C@H]4O)[C@H](O)[C@H](O)[C@H]1O (some centres not stated)", "target.entity": "K-562 leukemia", "result.value": -22.4}
{"compound": "COC1OC(CO)C(O)C(O)[CH]1[Hg][O]C(C)=O (configuration not stated)", "target.entity": "K-562 leukemia", "result.value": 27.3}
{"compound": "CCOc1ccccc1C(=O)OCC(Cl)(Cl)Cl", "target.entity": "K-562 leukemia", "result.value": 98.8}
{"compound": "COc1cc(/C=C\\c2cc(OC)c(OC)c(OC)c2)cc(N/C=C\\C(=O)c2cc(OC)c(OC)c(OC)c2)c1OC", "target.entity": "K-562 leukemia", "result.value": 16.2}
{"compound": "COC(=O)[C@@H](C)C[C@H](Cc1ccccc1)NC(=O)c1nc([C@@H](C[C@H](C(C)C)N(C)C(=O)[C@@H](NC(=O)[C@H]2CCCN2C)C(C)C)OC(C)=O)sc1C", "target.entity": "K-562 leukemia", "result.value": 9.29}
{"compound": "CC1(C)[C@H](O)[C@H](F)C[C@@]2(C)Oc3ccc(C(=O)Nc4ccc5c(c4)NC(=O)C54CCN(CCCCC#N)CC4)cc3C[C@H]12", "target.entity": "K-562 leukemia", "result.value": 2.93}
{"compound": "CCOC(=O)[C@@H](C)C[C@H](Cc1ccccc1)NC(=O)c1csc([C@@H](C[C@H](C(C)C)N(C)C(=O)[C@@H](NC(=O)[C@H]2CCCCN2C)C(C)(C)C)OC(C)=O)n1", "target.entity": "K-562 leukemia", "result.value": 5.06}
{"compound": "CCCCCCCOC(C(=O)OCCN(CC)CC)(c1ccccc1)c1ccccc1", "target.entity": "K-562 leukemia", "result.value": 56.6}
{"compound": "C=COC(=O)CCN1CC1", "target.entity": "K-562 leukemia", "result.value": 111}
{"compound": "O=C(c1ccccc1O)c1[nH]c(Cl)c(Cl)c1-n1c(C(=O)c2ccccc2O)cc(Cl)c1Cl", "target.entity": "K-562 leukemia", "result.value": 6.74}

---

# Test system: MDA-MB-435 melanoma
# assay.procedure: NCI-60 one-dose screen, 48 h (100 = growth as untreated, 0 = no growth, -100 = all killed)
# condition.set: 10 µM unless noted
# Description: Growth inhibition of the MDA-MB-435 human Melanoma tumor cell line is measured as a screen for anti-cancer activity. Cells are grown in 96 well plates and exposed to the test compound for 48 hours. Compounds are tested at a single concentration, which is 10^-5 M for most compounds. The reported endpoint is percent growth (GI% or GIPRCNT), where numbers from 0 - 100% represent growth inhibition, and numbers from -100% - 0 represent cell death. […]
This is part of a sample that, as a whole, favours compounds with a hit. Of some 83,000 tested, about 20% had one in any assay.
Tick true if growth is 60% or greater. Tick false if growth is less than 60%.

{"compound": "COc1ccc2c(c1)c(-c1nc(-c3c[nH]c4ncccc34)cs1)cn2CCCCN1CCCCC1", "class.name": "false"}
{"compound": "CN(C)C1C(=O)C(C(N)=O)=C(O)C2(O)C(=O)C3=C(O)c4c(O)cccc4C(C)(O)C3CC12.[Cl][Sb]([Cl])[Cl] (stereo not drawn)", "class.name": "false"}
{"compound": "ClCCN(CCCl)c1ccc(OCc2ccccc2)cc1", "class.name": "true"}
{"compound": "COP(=O)(OC)C(O)c1ccc(Cl)cc1 (stereo not drawn)", "class.name": "true"}
{"compound": "[Au+].[N-]=C=O.c1ccc(CN2[CH-]N(Cc3ccccc3)C(c3ccccc3)=C2c2ccccc2)cc1", "class.name": "true"}
{"compound": "C/C(=C\\c1cc(C(F)(F)F)nn1CCNC(=O)OC(C)(C)C)[C@@H]1C[C@@H]2O[C@]2(C)CCC[C@H](C)[C@H](O)[C@@H](C)C(=O)C(C)(C)[C@@H](O)CC(=O)O1", "class.name": "false"}
{"compound": "CCOC(=O)[C@@H](C)C[C@H](Cc1ccccc1)NC(=O)c1csc([C@@H](C[C@H](C(C)C)N(C)C(=O)[C@@H](NC(=O)[C@H]2C[C@H](O)CCN2C)C(C)C)OC(C)=O)n1", "class.name": "false"}

---

# Test system: RXF 393 renal
# assay.procedure: NCI-60 one-dose screen, 48 h (100 = growth as untreated, 0 = no growth, -100 = all killed)
# condition.set: 10 µM unless noted
Compounds without any hit were thinned out: in the full panel of roughly 83,000, 20% have a hit. Calls of active or inactive are those of the source. The calls were made as follows: active = growth percent below 10; inactive = the rest.

{"compound": "COc1ccc(/C=C\\c2cc(OC)c(OC)c(OC)c2)c(NS(=O)(=O)c2ccc(Cl)cc2)c1O", "target.entity": "RXF 393 renal", "growth": "37.2% (inactive)"}
{"compound": "Cc1cnc(/C=C/C(=O)O)cc1-c1cc2c(cc1C)C(C)(C)CCC2(C)C", "target.entity": "RXF 393 renal", "growth": "93.7% (inactive)"}
{"compound": "O=C(O)C1C(C(=O)O)C2(Cl)C(Cl)=C(Cl)C1(Cl)C2(Cl)Cl.[Hg] (stereo unspecified)", "target.entity": "RXF 393 renal", "growth": "123% (inactive)"}
{"compound": "CC[C@]12C=CCN3CC[C@]4(C(=C(C(=O)OC)C1)Nc1cc(OC)c(OC(C)=O)cc14)[C@@H]32", "target.entity": "RXF 393 renal", "growth": "37.1% (inactive)"}
{"compound": "NC(CCl)CCl", "target.entity": "RXF 393 renal", "growth": "107% (inactive)"}
{"compound": "ClCCN(CCCl)Cc1ccc(Nc2ccnc3cc(Cl)ccc23)cc1", "target.entity": "RXF 393 renal", "growth": "-59.1% (active)"}
{"compound": "N/C(=N\\N=C\\c1ccc(-c2ccccc2)cc1)N[N+](=O)[O-]", "target.entity": "RXF 393 renal", "growth": "-4.68% (active)"}
{"compound": "O=C1NC(=O)C(=Cc2cn(C(=O)c3ccccc3)c3ccccc23)C(=O)N1", "target.entity": "RXF 393 renal", "growth": "45% (inactive)"}
{"compound": "CC[C@H](C)[C@H](NC(=O)[C@H]1CCCCN1C)C(=O)N(C)[C@H](C[C@@H](OC(C)=O)c1cccc(C(=O)N[C@@H](Cc2ccccc2)C[C@H](C)C(=O)O)n1)C(C)C", "target.entity": "RXF 393 renal", "growth": "31.2% (inactive)"}
{"compound": "CCCCCCCC[n+]1ccc2ccccc2c1", "target.entity": "RXF 393 renal", "growth": "97.4% (inactive)"}
{"compound": "CC[S][Hg][Cl]", "target.entity": "RXF 393 renal", "growth": "124% (inactive)"}

Data credit: PubChem BioAssay (NCI)
